- assayed target: MST1 (h) (Homo sapiens)
- Construct: purchased Millipore
- Sequence (Q13043 1-487): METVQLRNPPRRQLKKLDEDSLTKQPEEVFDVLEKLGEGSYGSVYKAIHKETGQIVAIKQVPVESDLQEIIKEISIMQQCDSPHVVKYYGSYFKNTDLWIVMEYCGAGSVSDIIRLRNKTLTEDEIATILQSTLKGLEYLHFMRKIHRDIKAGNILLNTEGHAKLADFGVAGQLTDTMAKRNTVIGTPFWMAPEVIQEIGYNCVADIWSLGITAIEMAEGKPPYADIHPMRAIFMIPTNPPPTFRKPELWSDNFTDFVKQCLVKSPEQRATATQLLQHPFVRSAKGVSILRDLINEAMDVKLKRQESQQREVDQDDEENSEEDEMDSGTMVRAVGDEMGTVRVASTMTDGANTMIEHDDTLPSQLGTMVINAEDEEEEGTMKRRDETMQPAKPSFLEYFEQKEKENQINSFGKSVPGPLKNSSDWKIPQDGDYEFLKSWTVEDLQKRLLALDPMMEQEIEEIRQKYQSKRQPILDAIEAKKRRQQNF
- method summary: Kinase Profiling Assay
- Type: biochemical
- assay context: 100 μM
quantity measured: % activity (%)
Hi! Could you send only the number? It should be in %, unit omitted.

[[record]]
seq_string = "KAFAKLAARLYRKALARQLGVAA [MMI-0400]"
quantity_measured = "% activity"
u = "%"
numeric_value = 6

[[record]]
seq_string = "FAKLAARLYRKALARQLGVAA [MMI-0300]"
quantity_measured = "% activity"
u = "%"
numeric_value = 14

[[record]]
seq_string = "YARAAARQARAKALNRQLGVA (Mammalian) [MMI-0200]"
quantity_measured = "% activity"
u = "%"
numeric_value = 72


Please give the measured % activity for this sequence: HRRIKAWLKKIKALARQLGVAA (Mammalian) [MMI-0500]
3

---

- Test system: MLCK (h)
- method summary: Kinase Profiling Assay
- Assay type: biochemical, human
- assay context: 100 μM
Ends that are not written are not given here.
quantity measured: % activity (%)
Respond numerically; units are % and should not be typed.

[[record]]
seq_string = "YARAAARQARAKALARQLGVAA [MMI-0100]"
assayed_target = "MLCK (h)"
quantity_measured = "% activity"
numeric_value = 85

[[record]]
seq_string = "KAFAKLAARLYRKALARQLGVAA [MMI-0400]"
assayed_target = "MLCK (h)"
quantity_measured = "% activity"
numeric_value = 1

[[record]]
seq_string = "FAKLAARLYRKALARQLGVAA [MMI-0300]"
assayed_target = "MLCK (h)"
quantity_measured = "% activity"
numeric_value = 2

[[record]]
seq_string = "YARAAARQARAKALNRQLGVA (Mammalian) [MMI-0200]"
assayed_target = "MLCK (h)"
quantity_measured = "% activity"
numeric_value = 103


Now let's try a different one.
If you can, please state the reported % activity value of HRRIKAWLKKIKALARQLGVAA (Mammalian) [MMI-0500] .
0

---

# % activity per entry
- assayed target: MST3 (h) (Homo sapiens)
- Construct: purchased Millipore
- Sequence (Q9Y6E0 whole entry): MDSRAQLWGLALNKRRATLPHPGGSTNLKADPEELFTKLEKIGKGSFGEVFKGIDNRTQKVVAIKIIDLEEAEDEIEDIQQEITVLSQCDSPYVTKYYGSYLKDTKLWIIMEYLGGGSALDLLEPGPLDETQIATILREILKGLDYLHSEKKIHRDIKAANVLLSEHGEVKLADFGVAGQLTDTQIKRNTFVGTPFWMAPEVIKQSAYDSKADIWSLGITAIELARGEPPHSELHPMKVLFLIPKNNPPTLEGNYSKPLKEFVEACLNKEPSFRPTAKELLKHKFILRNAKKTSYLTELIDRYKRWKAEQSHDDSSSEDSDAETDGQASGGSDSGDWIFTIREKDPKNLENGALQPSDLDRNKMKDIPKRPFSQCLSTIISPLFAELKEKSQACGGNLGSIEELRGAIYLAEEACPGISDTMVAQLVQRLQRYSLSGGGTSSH
- method summary: Kinase Profiling Assay
- Assay type: biochemical
- assay context: 100 μM
Give just the number in %; leave the unit off.

Worked examples follow.
[[record]]
seq_string = "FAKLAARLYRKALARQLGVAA [MMI-0300]"
numeric_value = 45

[[record]]
seq_string = "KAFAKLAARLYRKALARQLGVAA [MMI-0400]"
numeric_value = 36

[[record]]
seq_string = "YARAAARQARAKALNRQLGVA (Mammalian) [MMI-0200]"
numeric_value = 95


Lab note: next sequence to report on.
I'm curious: which % activity was measured for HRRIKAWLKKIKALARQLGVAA (Mammalian) [MMI-0500] tested on MST3 (h) (Homo sapiens)?
4

---

- assayed target: PKBα (h) (Homo sapiens)
- Construct: purchased Millipore
- Sequence (P31749 whole entry): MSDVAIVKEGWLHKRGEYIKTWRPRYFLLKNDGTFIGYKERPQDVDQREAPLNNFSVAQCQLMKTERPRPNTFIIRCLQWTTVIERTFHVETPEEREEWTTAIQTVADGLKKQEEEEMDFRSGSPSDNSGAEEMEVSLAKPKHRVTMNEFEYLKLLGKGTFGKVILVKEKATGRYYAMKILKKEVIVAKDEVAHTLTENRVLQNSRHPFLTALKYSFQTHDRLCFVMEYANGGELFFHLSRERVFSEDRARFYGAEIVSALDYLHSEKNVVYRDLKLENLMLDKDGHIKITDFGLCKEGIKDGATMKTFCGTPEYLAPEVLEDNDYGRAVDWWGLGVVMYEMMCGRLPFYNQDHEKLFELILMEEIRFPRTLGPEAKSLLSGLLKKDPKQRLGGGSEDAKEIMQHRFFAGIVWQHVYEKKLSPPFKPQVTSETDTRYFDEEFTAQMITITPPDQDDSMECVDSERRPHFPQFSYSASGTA
- method summary: Kinase Profiling Assay
- Type: biochemical
- assay context: 100 μM
- Description: Every kinase activity measurement was conducted in duplicate. Specifically, in these assays, a positively charged substrate is phosphorylated with a radiolabeled phosphate group from an ATP if the kinase is not inhibited by an inhibitor peptide. The positively charged substrate then is attracted to a negatively charged filter membrane, quantified with a scintillation counter, and compared to a 100% activity control. […]
quantity measured: % activity (%)
Dear colleague, please return just the value in %, with no unit written.

Reference set, count: 3
[[record]]
seq_string = "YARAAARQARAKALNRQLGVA (Mammalian) [MMI-0200]"
quantity_measured = "% activity"
numeric_value = 110

[[record]]
seq_string = "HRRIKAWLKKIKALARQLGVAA (Mammalian) [MMI-0500]"
quantity_measured = "% activity"
numeric_value = 30

[[record]]
seq_string = "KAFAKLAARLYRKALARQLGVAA [MMI-0400]"
quantity_measured = "% activity"
numeric_value = 67


Could you share what % activity was measured for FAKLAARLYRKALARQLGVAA [MMI-0300] , tested on PKBα (h) (Homo sapiens)?
57

---

- assayed target: PDGFRα (h) (Homo sapiens, UniProt P16234)
- Construct: purchased Millipore
- Sequence (P16234 24-1089): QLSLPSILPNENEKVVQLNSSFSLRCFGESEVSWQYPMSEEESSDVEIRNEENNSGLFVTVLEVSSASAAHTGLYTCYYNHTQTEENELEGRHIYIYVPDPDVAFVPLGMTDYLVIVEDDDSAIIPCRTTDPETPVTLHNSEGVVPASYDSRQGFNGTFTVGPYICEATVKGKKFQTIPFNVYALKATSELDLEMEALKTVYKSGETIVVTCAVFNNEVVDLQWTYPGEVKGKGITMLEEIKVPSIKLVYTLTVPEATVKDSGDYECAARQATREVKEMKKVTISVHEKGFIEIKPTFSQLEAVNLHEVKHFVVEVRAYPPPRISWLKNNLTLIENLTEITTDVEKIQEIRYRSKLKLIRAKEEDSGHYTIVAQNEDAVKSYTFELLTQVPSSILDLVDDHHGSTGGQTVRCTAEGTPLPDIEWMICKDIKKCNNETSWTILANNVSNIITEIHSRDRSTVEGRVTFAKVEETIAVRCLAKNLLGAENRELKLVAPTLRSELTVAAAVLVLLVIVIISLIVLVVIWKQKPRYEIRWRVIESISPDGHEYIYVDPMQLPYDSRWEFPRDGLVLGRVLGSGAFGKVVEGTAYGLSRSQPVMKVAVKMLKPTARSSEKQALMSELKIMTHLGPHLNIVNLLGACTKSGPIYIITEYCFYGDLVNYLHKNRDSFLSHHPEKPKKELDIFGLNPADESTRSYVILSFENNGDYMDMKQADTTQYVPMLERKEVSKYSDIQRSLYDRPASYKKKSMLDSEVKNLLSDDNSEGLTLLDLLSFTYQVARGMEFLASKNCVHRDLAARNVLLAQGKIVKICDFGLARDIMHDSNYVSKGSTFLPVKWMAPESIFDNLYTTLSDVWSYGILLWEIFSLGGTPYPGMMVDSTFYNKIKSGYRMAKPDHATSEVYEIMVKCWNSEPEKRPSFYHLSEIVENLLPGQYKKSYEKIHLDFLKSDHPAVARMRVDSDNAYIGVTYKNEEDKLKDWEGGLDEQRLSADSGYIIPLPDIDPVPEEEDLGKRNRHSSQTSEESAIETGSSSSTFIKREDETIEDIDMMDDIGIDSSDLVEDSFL
- method summary: Kinase Profiling Assay
- Format: biochemical
- assay context: 100 μM
quantity measured: % activity (%)
Give the number; % is assumed, so skip it.

Solved entries (count: 3):
[[record]]
seq_string = "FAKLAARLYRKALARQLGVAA [MMI-0300]"
numeric_value = 65

[[record]]
seq_string = "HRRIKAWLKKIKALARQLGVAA (Mammalian) [MMI-0500]"
numeric_value = 40

[[record]]
seq_string = "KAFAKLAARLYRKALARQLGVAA [MMI-0400]"
numeric_value = 40


Report % activity for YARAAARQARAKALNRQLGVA (Mammalian) [MMI-0200] please.
108

---

- assayed target: Lck (h) activated (Homo sapiens)
- Sequence (P06239 whole entry): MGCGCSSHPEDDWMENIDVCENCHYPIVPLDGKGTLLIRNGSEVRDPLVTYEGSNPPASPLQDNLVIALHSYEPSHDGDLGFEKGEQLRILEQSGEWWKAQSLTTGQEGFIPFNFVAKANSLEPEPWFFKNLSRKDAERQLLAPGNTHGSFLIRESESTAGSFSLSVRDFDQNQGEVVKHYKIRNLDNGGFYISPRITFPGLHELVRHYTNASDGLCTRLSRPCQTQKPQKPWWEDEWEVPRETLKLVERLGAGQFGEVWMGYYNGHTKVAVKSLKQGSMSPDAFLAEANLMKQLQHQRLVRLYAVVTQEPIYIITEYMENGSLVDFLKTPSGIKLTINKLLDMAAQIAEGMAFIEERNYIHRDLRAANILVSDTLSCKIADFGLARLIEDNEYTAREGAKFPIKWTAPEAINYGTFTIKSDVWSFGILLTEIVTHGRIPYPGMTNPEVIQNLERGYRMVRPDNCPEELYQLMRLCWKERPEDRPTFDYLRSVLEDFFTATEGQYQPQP
- method summary: Kinase Profiling Assay
- Assay type: biochemical
- assay context: 100 μM
quantity measured: % activity (%)
// note: answer is a bare numeric in %

[[record]]
seq_string = "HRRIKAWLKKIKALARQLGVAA (Mammalian) [MMI-0500]"
numeric_value = 76

[[record]]
seq_string = "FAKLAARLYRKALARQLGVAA [MMI-0300]"
numeric_value = 243


Any idea what its % activity is? The sequence is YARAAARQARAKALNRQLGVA (Mammalian) [MMI-0200]
90

Consider the sequence shown here: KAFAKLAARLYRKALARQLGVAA [MMI-0400] What is its recorded % activity?
216

---

- assayed target: TrkB (h) (Homo sapiens, UniProt Q16620)
- method summary: Kinase Profiling Assay
- Format: biochemical
- assay context: 100 μM
quantity measured: % activity (%)
The answer is to be given in %; state only the numeric part.

Solved cases below.
[[record]]
seq_string = "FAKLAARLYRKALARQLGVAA [MMI-0300]"
u = "%"
numeric_value = 5

[[record]]
seq_string = "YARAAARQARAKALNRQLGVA (Mammalian) [MMI-0200]"
u = "%"
numeric_value = 7

[[record]]
seq_string = "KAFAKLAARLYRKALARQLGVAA [MMI-0400]"
u = "%"
numeric_value = 8


// next entry
Fill in: % activity of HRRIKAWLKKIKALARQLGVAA (Mammalian) [MMI-0500] is ___
12

---

- assayed target: FGFR4 (h) (Homo sapiens, UniProt P22455)
- method summary: Kinase Profiling Assay
- Assay type: biochemical
- assay context: 100 μM
quantity measured: % activity (%)
Quick reminder: number only, in %, skip the unit.

[[record]]
seq_string = "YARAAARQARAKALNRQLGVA (Mammalian) [MMI-0200]"
numeric_value = 75


Can you share its % activity? I mean this sequence: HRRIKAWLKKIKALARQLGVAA (Mammalian) [MMI-0500]
3

Recorded % activity of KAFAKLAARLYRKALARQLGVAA [MMI-0400] , please.
19

Endpoint output: % activity of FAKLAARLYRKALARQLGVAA [MMI-0300] . Value?
28

---

- assayed target: CK2 (h) (Homo sapiens, UniProt P68400)
- Construct: purchased Millipore
- Sequence (P68400 whole entry): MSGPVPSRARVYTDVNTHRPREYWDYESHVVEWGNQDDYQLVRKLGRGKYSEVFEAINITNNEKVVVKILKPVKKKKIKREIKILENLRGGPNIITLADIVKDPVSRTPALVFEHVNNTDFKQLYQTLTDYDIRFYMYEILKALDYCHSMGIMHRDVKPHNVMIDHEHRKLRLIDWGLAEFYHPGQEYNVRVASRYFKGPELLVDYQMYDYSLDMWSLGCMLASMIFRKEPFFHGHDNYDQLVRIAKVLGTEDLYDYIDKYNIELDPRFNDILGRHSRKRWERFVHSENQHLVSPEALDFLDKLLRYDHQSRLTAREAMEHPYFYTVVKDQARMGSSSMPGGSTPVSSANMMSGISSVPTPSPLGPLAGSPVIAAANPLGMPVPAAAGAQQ
- Sequence (P67870 whole entry partner): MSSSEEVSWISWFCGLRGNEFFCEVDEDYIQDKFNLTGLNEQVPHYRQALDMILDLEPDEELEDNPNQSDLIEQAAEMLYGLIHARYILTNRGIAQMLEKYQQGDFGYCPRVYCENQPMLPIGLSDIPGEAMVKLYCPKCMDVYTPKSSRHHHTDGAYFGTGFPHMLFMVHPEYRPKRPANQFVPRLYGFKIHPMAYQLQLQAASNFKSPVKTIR
- method summary: Kinase Profiling Assay
- Assay type: biochemical
- assay context: 100 μM
quantity measured: % activity (%)
Answer format: numeric, % implied, no suffix.

[[record]]
seq_string = "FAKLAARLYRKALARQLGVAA [MMI-0300]"
assayed_target = "CK2 (h) (Homo sapiens, UniProt P68400)"
quantity_measured = "% activity"
u = "%"
numeric_value = 90

[[record]]
seq_string = "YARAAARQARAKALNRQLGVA (Mammalian) [MMI-0200]"
assayed_target = "CK2 (h) (Homo sapiens, UniProt P68400)"
quantity_measured = "% activity"
u = "%"
numeric_value = 83

[[record]]
seq_string = "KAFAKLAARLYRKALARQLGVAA [MMI-0400]"
assayed_target = "CK2 (h) (Homo sapiens, UniProt P68400)"
quantity_measured = "% activity"
u = "%"
numeric_value = 101


Shift focus to the following entry.
Which % activity reading was recorded for the sequence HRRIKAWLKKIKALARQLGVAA (Mammalian) [MMI-0500] ?
93
